System: SF-539
assayMethodText: NCI tumour cell line growth inhibition, 48 h
Calls of active or inactive are those of the source. Rule as the data show it: active = GI50 up to about 1.1 µM and inactive = higher.
Form field: GI50 (one value per entry).

compound	GI50
COc1ccc2c([nH]c3c(O)c(-c4c(C)cc5c([nH]c6c(CC=C(C)C)c(OC)ccc65)c4O)c(C)cc32)c1CC=C(C)C	> 100 µM (inactive)
C#C[C@H]1CCCCCC1O (stereo not given in full)	> 100 µM (inactive)
CCCCCCCCCCCC(=O)OCC1OC(n2cc(F)c(=O)[nH]c2=O)C(N)C(O)C1O (stereo not given)	> 100 µM (inactive)
COCOc1c(C(O[Si](C)(C)C(C)(C)C)c2cnc(Sc3ccccc3)n2C)ccc(OC)c1OC (stereo not given)	1.97 µM (inactive)
O=c1c2cc(Br)ccc2nc(CNc2ccccc2)n1-c1ccccc1	16.2 µM (inactive)
CCOC(=O)c1sc2nc(SC)nc3c2c1NC(=O)CN3c1ccc(F)cc1	15.9 µM (inactive)
COc1ccc(C2=CC3CCC2C3)cc1 (stereo not given)	> 100 µM (inactive)
CN(C)CC(CC1=C(CC(CN(C)C)N(C)C)CCC1)N(C)C (stereo not given)	> 100 µM (inactive)
O=c1c(/C=C/c2c(O)ccc3ccccc23)nnc2sc(-c3cccc(Br)c3)nn12	63.8 µM (inactive)
CCOC(O)(NC(=O)C(C(F)(F)F)C(F)(F)F)C(F)(F)F (stereo not given)	> 100 µM (inactive)
